Readings of EC50 for the listed molecules
molecular target: GAL-RARβ (Homo sapiens, UniProt P10826); construct: expressed in transfected cells; test: Transactivation assay, HeLa cells with GAL-RARβ and (17 mer)x5-Glob-Luc reporter; assay type: cell-based; conditions: stable HeLa cell line, luciferase reporter, 24 hours
Sequence (P10826 183-417 limits assumed): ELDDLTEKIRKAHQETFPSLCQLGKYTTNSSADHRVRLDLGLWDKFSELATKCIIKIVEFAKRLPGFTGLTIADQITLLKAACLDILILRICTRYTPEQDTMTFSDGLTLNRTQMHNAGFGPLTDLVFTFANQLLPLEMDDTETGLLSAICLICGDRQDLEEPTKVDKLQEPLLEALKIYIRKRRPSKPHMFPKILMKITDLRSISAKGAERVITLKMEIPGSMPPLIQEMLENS
Reply with the number and its unit after it.

Exercise: Query (molecule): COc1ccc2c(c1)-c1cc(/C=C/c3ccc(C(=O)O)cc3)ccc1C(C)(C)C2 [Compound 10] ; field requested: EC50
Key: 0.005 nM

Exercise: Which value of EC50 has been reported for CC1(C)Cc2ccc(O)cc2-c2cc(/C=C/c3ccc(C(=O)O)cc3)ccc21 [Compound 8] in the records?
Key: 1.76 nM

----------
Molecular target: GAL-RARα (Homo sapiens, UniProt P10276)
Construct: expressed in transfected cells
Sequence (P10276 183-417 limits assumed): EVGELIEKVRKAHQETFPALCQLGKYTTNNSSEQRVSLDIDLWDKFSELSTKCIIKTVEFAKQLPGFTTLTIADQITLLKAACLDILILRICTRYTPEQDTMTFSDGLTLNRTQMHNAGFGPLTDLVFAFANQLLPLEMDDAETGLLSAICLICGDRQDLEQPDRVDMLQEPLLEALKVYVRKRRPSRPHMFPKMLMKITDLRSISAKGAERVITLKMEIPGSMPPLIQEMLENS
Assay: Transactivation assay, HeLa cells with GAL-RARα and (17 mer)x5-Glob-Luc reporter
Type: cell-based
Conditions: stable HeLa cell line, luciferase reporter, 24 hours
The entries below are paired with their reported EC50.
Provide the reading as a plain figure in nM.

INSERT INTO assay_data (compound_structure, unit_annotation, observed) VALUES
  ('COc1ccc2c(c1)-c1cc(/C=C/c3ccc(C(=O)O)cc3)ccc1C(C)(C)C2', 'nM', 0.02);

Could you now consider this next compound?
Exercise: Can you look up EC50 on GAL-RARα (Homo sapiens, UniProt P10276) for `CC1(C)Cc2ccc(O)cc2-c2cc(/C=C/c3ccc(C(=O)O)cc3)ccc21` ?
Key: 13.5

----------
molecular target: RARγ (Homo sapiens); construct: made in house; host or cells: E. coli BL21 (DE3); experiment: Competition binding assay using Yttrium SPA beads, RARγ
Sequence (P13631 185-419 limits assumed, species assumed): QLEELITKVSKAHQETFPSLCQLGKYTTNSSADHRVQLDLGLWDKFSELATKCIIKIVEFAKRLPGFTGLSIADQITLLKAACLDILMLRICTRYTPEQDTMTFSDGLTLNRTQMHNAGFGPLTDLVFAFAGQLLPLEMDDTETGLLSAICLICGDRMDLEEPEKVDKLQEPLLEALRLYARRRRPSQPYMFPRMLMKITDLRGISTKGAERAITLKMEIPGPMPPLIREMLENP
Readout type: Kd (nM)
The answer is to be given in nM; state only the numeric part.

Exercise: I would be grateful if you could share the reported Kd for COc1ccc2c(c1)-c1cc(/C=C/c3ccc(C(=O)O)cc3)ccc1C(C)(C)C2 [Compound 10] .
Key: 10.6

Exercise: Tell me the measured Kd of CC1(C)Cc2ccc(O)cc2-c2cc(/C=C/c3ccc(C(=O)O)cc3)ccc21 [Compound 8] , please.
Key: 52.8

----------
target: RARβ (Homo sapiens); construct: made in house; host or cells: E. coli BL21 (DE3); assay: Competition binding assay using Yttrium SPA beads, RARβ
Sequence (P10826 183-417 limits assumed, species assumed): as the sequence (P10826 183-417 limits assumed) above
Readout type: Kd (nM)
Lab book: enter the figure in nM, no units written.

INSERT INTO assay_data (compound_structure, observed) VALUES
  ('COc1ccc2c(c1)-c1cc(/C=C/c3ccc(C(=O)O)cc3)ccc1C(C)(C)C2', 1.6);

Next up:
Exercise: Value lookup for Kd; key = `CC1(C)Cc2ccc(O)cc2-c2cc(/C=C/c3ccc(C(=O)O)cc3)ccc21`
Key: 18.6
